Examples of compounds with documented inhibition follow.
# TARGET_OR_TEST_SYSTEM: Serum amyloid P-component (Homo sapiens)
# PROTOCOL_SUMMARY: Inhibition of calcium dependent [125I]serum amyloid P-component (unknown origin) binding to immobilized influenza virus A/Shanghai/24/90 at 200 nM incubated for 2 hrs by fluorescence/electron microscopy relative to control
READOUT_TYPE: inhibition (%)

{"ENTRY_SMILES": "O=C(O)[C@H]1CCCN1C(=O)CCCCC(=O)N1CCC[C@@H]1C(=O)O", "RESULT_UNIT": "%", "NUMERIC_READOUT": 36}
{"ENTRY_SMILES": "C[C@H](CS)C(=O)N1CCC[C@@H]1C(=O)O", "RESULT_UNIT": "%", "NUMERIC_READOUT": 12}
{"ENTRY_SMILES": "Cc1c(OCC(=O)N2CCC[C@@H]2C(=O)O)cccc1OCC(=O)N1CCC[C@@H]1C(=O)O", "RESULT_UNIT": "%", "NUMERIC_READOUT": 24}
{"ENTRY_SMILES": "O=C(O)[C@H]1CCCN1C(=O)[C@H]1CC[C@@H](C(=O)N2CCC[C@@H]2C(=O)O)CC1", "RESULT_UNIT": "%", "NUMERIC_READOUT": 0}
{"ENTRY_SMILES": "COc1cccc(OCC(=O)N2CCC[C@@H]2C(=O)O)c1OCC(=O)N1CCC[C@@H]1C(=O)O", "RESULT_UNIT": "%", "NUMERIC_READOUT": 16}
{"ENTRY_SMILES": "NCCOP(=O)(O)O", "RESULT_UNIT": "%", "NUMERIC_READOUT": 1}
{"ENTRY_SMILES": "O=C(O)[C@H]1CCCN1C(=O)Cc1ccc(CC(=O)N2CCC[C@@H]2C(=O)O)cc1", "RESULT_UNIT": "%", "NUMERIC_READOUT": 37}
{"ENTRY_SMILES": "O=C(O)[C@H]1CCCN1C(=O)Cc1ccc(CC(=O)N2CCC[C@@H]2C(=O)O)c2ccccc12", "RESULT_UNIT": "%", "NUMERIC_READOUT": 4}
{"ENTRY_SMILES": "O=C(O)[C@H]1CCCN1C(=O)Cc1cccc(CC(=O)N2CCC[C@@H]2C(=O)O)c1", "RESULT_UNIT": "%", "NUMERIC_READOUT": 25}
